B1: EHMT1 (parent)
chain: SARQGELQKVLLMLVDGIDPNFKM

# Variants of: B1
# Protocol Description: protein stability index of a GFP-peptide fusion (GPS, HEK-293T) (PSI 1-6); higher = more stable;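 note: lentivirally expressed fusions sorted by FACS into six bins by GFP to DsRed ratio, PSI derived from sequencing read proportions per bin multiplied by bin number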
# Experimental Conditions: c terminus: a fixed tail appended
Readout Type: protein stability index
Reply briefly: the number, and no unit.

As a guide, the following entries are already answered.
Item Sequence	protein stability index
SARQGELQKVLLRLVDGIDPNFKM [M13R]	1.73
SARQGELQKILLMLVDGIDPNFKM [V10I]	2.01
SARQGPLQKVLLMLVDGIDPNFKM [E6P]	2.45
SARQGELQKVLMMLVDGIDPNFKM [L12M]	3.16
SFRQGELQKVLLMLVDGIDPNFKM [A2F]	2.81
SARQGELQKVLLMLVDGIDPNHKM [F22H]	1.56
SARQIELQKVLLMLVDGIDPNFKM [G5I]	3.95
SARQGELQKFLLMLVDGIDPNFKM [V10F]	4.02
SARQGELQKVLLMIVDGIDPNFKM [L14I]	1.98
SARQGELQKVLLMLVWGIDPNFKM [D16W]	1.96

Using the record for SPRQGELQKVLLMLVDGIDPNFKM [A2P] , report its protein stability index.
2.31

Using the record for SARQGELQKVLLMLVDGADPNFKM [I18A] , report its protein stability index.
1.18
